Exercise: for every item that follows, state its recorded IC50.
- assayedTarget: Aurora-C (Homo sapiens)
- experimentalDetails: Flashplate assay for Aurora-C inhibitors
- Assay type: biochemical
- cond: read-out: IC50 against Aurora-C
Kindly provide the numeric value in nM only, without the unit symbol.

Aurora-C (Homo sapiens) IC50 of `CN(C)c1ccc(-c2nc3c(N4CCN(CC(=O)Nc5nccs5)CC4)c(Cl)cnc3[nH]2)cc1` is 362

Aurora-C (Homo sapiens) IC50 of `CN(C)c1ccc(-c2nc3c(N4CCN(CC(=O)Nc5nccs5)CC4)c(Br)cnc3[nH]2)cc1` is 530

====

Exercise: for every item that follows, state its recorded IC50.
- assayedTarget: Aurora-C (Homo sapiens, UniProt Q9UQB9)
- Sequence (Q9UQB9 1-309): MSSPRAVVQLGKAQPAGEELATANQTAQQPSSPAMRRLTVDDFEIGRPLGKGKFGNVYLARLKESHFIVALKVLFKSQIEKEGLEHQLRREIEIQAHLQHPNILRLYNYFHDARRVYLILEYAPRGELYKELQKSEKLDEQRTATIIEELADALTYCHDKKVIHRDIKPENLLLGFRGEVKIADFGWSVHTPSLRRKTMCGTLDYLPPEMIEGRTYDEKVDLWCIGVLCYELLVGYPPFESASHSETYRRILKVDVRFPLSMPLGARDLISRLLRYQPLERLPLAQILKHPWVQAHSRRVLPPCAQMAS
- experimentalDetails: Filterplate assay for Aurora-C inhibitors
- Format: biochemical
- cond: read-out: IC50 range in respect of Aurora-C

IC50 measured on `Brc1cnc2[nH]c(-c3ccc(CN4CCNCC4)cc3)nc2c1N1CCN(Cc2cccnc2)CC1` = < 500 nM

IC50 measured on `Cc1cc(CN2CCN(c3c(Br)cnc4[nH]c(-c5ccc(CN6CCOCC6)cc5)nc34)CC2)no1` = < 500 nM

IC50 measured on `Cc1nc(CN2CCN(c3c(Br)cnc4[nH]c(-c5ccc(Cn6cccn6)cc5)nc34)CC2)cs1` = < 500 nM

IC50 measured on `Cc1cc(CN2CCN(c3c(Br)cnc4[nH]c(-c5ccc(Cn6cccn6)cc5)nc34)CC2)no1` = < 500 nM

IC50 measured on `Brc1cnc2[nH]c(-c3ccc(CN4CCOCC4)cc3)nc2c1N1CCN(Cc2cncnc2)CC1` = < 500 nM

IC50 measured on `Brc1cnc2[nH]c(-c3ccc(CN4CCOCC4)cc3)nc2c1N1CCN(Cc2cccnc2)CC1` = < 500 nM
